Source listed as ChEMBL document CHEMBL3351921.

# Test: AUC (0 to infinity) in rat at 1 mg/kg, iv
# Type: ADME, organism-based
# Design: time infinity, dose 1 mg/kg, route intravenous
# Test conditions: plasma
Items are presented alongside their recorded AUC(0-inf).
# value in µg·h/mL; strip the unit string

Examples with their reported AUC(0-inf) follow.
COc1ccc(S(=O)(=O)c2ccc(F)cc2)c(Cc2c3c(n(CC(=O)O)c2C)CCNC3=O)c1 : 0.613
Cc1c(Cc2ccccc2S(=O)(=O)c2ccc(F)cc2)c2c(n1CC(=O)O)CCNC2=O : 2.46

Lab note: next molecule to report on.
(Q) Supply measured AUC(0-inf) of Cc1c(Cc2ccccc2S(=O)(=O)c2ccccc2)c2c(n1CC(=O)O)CC(C)(C)NC2=O in your reply.
(A) 2.05

----------
# Target system: Prostaglandin D2 receptor 2 (Homo sapiens, UniProt Q9Y5Y4)
# Test: Antagonist activity at CRTh2 (unknown origin) stably expressed in PGD2-stimulated CHO.K1 cells preincubated for 30 mins by radio-labelled [35S]-GTPgammaS binding assay
# Type: functional, cell-based
Recorded pIC50 for the following compounds
Notebook: values listed as pIC50 are -log10 of the concentration (mol/L).

Cc1c(Cc2ccccc2S(=O)(=O)c2ccccc2)c2c(n1CC(=O)O)CCNC2=O : 8.35
COc1ccc(S(=O)(=O)c2ccc(F)cc2)c(Cc2c3c(n(CC(=O)O)c2C)CCNC3=O)c1 : 8.39

Attention now turns to another entry.
(Q) Please list pIC50 recorded for the compound Cc1c(Cc2ccccc2S(=O)(=O)c2ccccc2)c2c(n1CC(=O)O)CC(C)(C)NC2=O
(A) 8.26

----------
# Target system: Prostaglandin D2 receptor 2 (Homo sapiens) (UniProt Q9Y5Y4)
# Test conditions: CHO.K1
# Description: Antagonist activity at CRTh2 (unknown origin) stably expressed in PGD2-stimulated CHO.K1 cells assessed as dissociation half-life at 5 to 10 times IC50 after 2 hrs by radio-labelled [35S]-GTPgammaS binding assay
Measurement label: T1/2

The examples below pair each entry with its known result.
Cc1c(Cc2ccccc2S(=O)(=O)c2ccccc2)c2c(n1CC(=O)O)CCN(C)C2=O : 5.3 h
Cc1c(Cc2ccccc2S(=O)(=O)c2ccc(Cl)cc2)c2c(n1CC(=O)O)CCNC2=O : 1.2 h
Cc1c(Cc2ccccc2S(=O)(=O)c2ccc(OC(F)(F)F)cc2)c2c(n1CC(=O)O)CCNC2=O : 1.3 h

(Q) Fill in: T1/2 on Prostaglandin D2 receptor 2 (Homo sapiens) (UniProt Q9Y5Y4), entry Cc1c(Cc2ccccc2S(=O)(=O)c2ccccc2)c2c(n1CC(=O)O)CCN(Cc1ccccc1)C2=O
(A) 6.7 h

----------
# key: entry, value: log10 IC50
# Target system: Prostaglandin D2 receptor 2 (Homo sapiens)
# Test: Antagonist activity at CRTh2 (unknown origin) stably expressed in PGD2-stimulated CHO.K1 cells preincubated for 1 hr by radio-labelled [35S]-GTPgammaS binding assay
# Assay type: functional, cell-based
Reminder: these figures are log10 of reported IC50, in nM before transformation.

CNC(=O)c1ccc(Cc2c3c(n(CC(=O)O)c2C)CCNC3=O)c(S(=O)(=O)c2ccccc2)c1 : 1.00
COc1ccc(S(=O)(=O)c2ccc(F)cc2)c(Cc2c3c(n(CC(=O)O)c2C)CCNC3=O)c1 : 0.85
Cc1c(Cc2ccccc2S(=O)(=O)c2ccccc2)c2c(n1CC(=O)O)CCN(C)C2=O : 0.85
Cc1c(Cc2ccc(S(=O)(=O)Cc3ccccc3)cc2)c2c(n1CC(=O)O)CCNC2=O : 0.48
Cc1c(Cc2ccccc2Oc2ccccc2)c2c(n1CC(=O)O)CCNC2=O : 2.72

Please turn your attention to the following entry.
(Q) Give the value of log10 IC50 reported for the following: Cc1c(Cc2ccc(C(=O)O)cc2S(=O)(=O)c2ccccc2)c2c(n1CC(=O)O)CCNC2=O
(A) 1.28

----------
# Target system: Prostaglandin D2 receptor 2 (Homo sapiens)
# Sequence (whole entry): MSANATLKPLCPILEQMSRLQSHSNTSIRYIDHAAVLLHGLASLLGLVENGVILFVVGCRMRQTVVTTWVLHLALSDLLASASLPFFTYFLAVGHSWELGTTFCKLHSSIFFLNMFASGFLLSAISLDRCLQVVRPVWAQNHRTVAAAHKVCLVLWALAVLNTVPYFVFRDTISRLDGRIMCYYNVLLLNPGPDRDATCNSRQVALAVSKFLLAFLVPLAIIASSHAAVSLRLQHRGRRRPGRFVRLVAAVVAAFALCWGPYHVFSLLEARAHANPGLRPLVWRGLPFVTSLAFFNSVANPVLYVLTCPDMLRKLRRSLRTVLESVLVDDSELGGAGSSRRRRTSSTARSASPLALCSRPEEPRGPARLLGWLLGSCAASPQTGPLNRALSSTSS
# Test conditions: CHO.K1
Measurement label: T1/2 (h)
Numbers only here, please. The scale is h.

(Q) Give T1/2 for Cc1c(Cc2ccccc2S(=O)(=O)c2ccccc2)c2c(n1CC(=O)O)CC(C)(C)NC2=O tested on Prostaglandin D2 receptor 2 (Homo sapiens).
(A) 10

(Q) Recall the reported T1/2 of Cc1c(Cc2cc(Br)ccc2S(=O)(=O)c2ccccc2)c2c(n1CC(=O)O)CCNC2=O on Prostaglandin D2 receptor 2 (Homo sapiens) and write it down.
(A) 5.7

(Q) Tell me T1/2 of Cc1c(Cc2ccc(C(F)(F)F)cc2S(=O)(=O)c2ccccc2)c2c(n1CC(=O)O)CCNC2=O when tested on Prostaglandin D2 receptor 2 (Homo sapiens).
(A) 0.9

(Q) Write down measured T1/2 (Prostaglandin D2 receptor 2 (Homo sapiens)) for this molecule. Cc1c(Cc2ccccc2S(=O)(=O)N2CCOCC2)c2c(n1CC(=O)O)CCNC2=O
(A) 0.6

(Q) Lab note: Prostaglandin D2 receptor 2 (Homo sapiens) assay, enter T1/2 for COC(=O)c1ccc(Cc2c3c(n(CC(=O)O)c2C)CCNC3=O)c(S(=O)(=O)c2ccccc2)c1 here
(A) 1.8

(Q) Specify the recorded T1/2 for Cc1c(Cc2ccccc2S(=O)(=O)c2ccccc2F)c2c(n1CC(=O)O)CCNC2=O , system: Prostaglandin D2 receptor 2 (Homo sapiens).
(A) 1.1

(Q) Under Prostaglandin D2 receptor 2 (Homo sapiens), report T1/2 for Cc1c(Cc2ccccc2S(=O)(=O)c2cccc(F)c2)c2c(n1CC(=O)O)CCNC2=O
(A) 0.8

(Q) Please report T1/2 with Prostaglandin D2 receptor 2 (Homo sapiens) for item Cc1c(Cc2ccccc2S(=O)(=O)c2ccc(F)cc2)c2c(n1CC(=O)O)CC(C)(C)NC2=O .
(A) 18

(Q) Report value: T1/2, system: Prostaglandin D2 receptor 2 (Homo sapiens), molecule: Cc1c(Cc2ccccc2S(=O)(=O)c2ccccc2)c2c(=O)n(C)ccc2n1CC(=O)O
(A) 8

----------
# Test: Cmax in rat at 10 mg/kg, po
# Format: ADME, organism-based
# Parameters: dose 10 mg/kg, route oral
# Test conditions: in vivo
# Cmax annotations
Write the answer as a number in ng/mL, unit excluded.

Answered examples (2):
Cc1c(Cc2ccccc2S(=O)(=O)c2ccccc2)c2c(n1CC(=O)O)CC(C)(C)NC2=O : 126
COc1ccc(S(=O)(=O)c2ccc(F)cc2)c(Cc2c3c(n(CC(=O)O)c2C)CCNC3=O)c1 : 36

(Q) Write down Cmax measured for item Cc1c(Cc2ccccc2S(=O)(=O)c2ccc(F)cc2)c2c(n1CC(=O)O)CCNC2=O
(A) 102

----------
Consider the following compounds and their measured half-life readings.
# Test: Terminal half life in rat at 10 mg/kg, po
# Format: ADME, organism-based
# Design: dose 10 mg/kg, route oral
# Test conditions: in vivo, read-out: beta t1/2 (converted)
Output spec: scalar in h, unitless text.

// below: answered compounds
COc1ccc(S(=O)(=O)c2ccc(F)cc2)c(Cc2c3c(n(CC(=O)O)c2C)CCNC3=O)c1 : 2.2
Cc1c(Cc2ccccc2S(=O)(=O)c2ccccc2)c2c(n1CC(=O)O)CC(C)(C)NC2=O : 2.5

(Q) Recall and state the measured half-life for Cc1c(Cc2ccccc2S(=O)(=O)c2ccc(F)cc2)c2c(n1CC(=O)O)CCNC2=O .
(A) 5.6

----------
# Test: Terminal half life in rat at 1 mg/kg, iv
# Format: ADME, organism-based
# Parameters: dose 1 mg/kg, route intravenous
# Test conditions: in vivo, read-out: beta t1/2 (converted)
Measurement label: half-life (min)
Write the answer as a number in min, unit excluded.

Cc1c(Cc2ccccc2S(=O)(=O)c2ccc(F)cc2)c2c(n1CC(=O)O)CCNC2=O : 132
COc1ccc(S(=O)(=O)c2ccc(F)cc2)c(Cc2c3c(n(CC(=O)O)c2C)CCNC3=O)c1 : 18

(Q) // Input: Cc1c(Cc2ccccc2S(=O)(=O)c2ccccc2)c2c(n1CC(=O)O)CC(C)(C)NC2=O . Output its half-life only.
(A) 48

----------
# Target system: Prostaglandin D2 receptor 2 (Homo sapiens)
# Test: Antagonist activity at CRTh2 (unknown origin) stably expressed in PGD2-stimulated CHO.K1 cells preincubated for 180 mins by radio-labelled [35S]-GTPgammaS binding assay
# Format: functional, cell-based
Measurement label: IC50

Example entries and their recorded answers appear below.
Cc1c(Cc2ccccc2S(=O)(=O)c2ccccc2)c2c(n1CC(=O)O)CC(C)(C)NC2=O : 2.1 nM
Cc1c(Cc2ccccc2S(=O)(=O)c2ccccc2)c2c(n1CC(=O)O)CCNC2=O : 3 nM

From here, focus on the item given below.
(Q) Input COc1ccc(S(=O)(=O)c2ccc(F)cc2)c(Cc2c3c(n(CC(=O)O)c2C)CCNC3=O)c1 , output reported IC50.
(A) 2.1 nM
